Molecular target: T1, recombinant 6x-His-tagged p32 protein (p32/p33/gC1qR/HABP1) (UniProt Q07021 74-282)
T1 construct: not shown: 6x-His tag
T1 sequence (looked up): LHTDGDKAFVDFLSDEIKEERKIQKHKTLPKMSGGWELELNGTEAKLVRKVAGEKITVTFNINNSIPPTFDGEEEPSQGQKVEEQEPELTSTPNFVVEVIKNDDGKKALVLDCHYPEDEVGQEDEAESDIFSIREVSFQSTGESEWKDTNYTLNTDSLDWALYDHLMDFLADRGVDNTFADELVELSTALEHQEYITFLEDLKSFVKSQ
Test: fluorescence polarization, FAM-labeled peptide constant, p32 titrated (FIG. 2A)
pKd: −log10 of the molar value. Bridges are numbered along the chain shown (N, C = ends). Where no end group is shown, it is not given here. FAM = 5(6)-carboxyfluorescein; Ahx = NCCCCCC(=O)O
Value Kind: pKd

                                     binder  value_kind  result_value
0  {FAM-Ahx}-CGNKRTRGC (disulfide 1-9 (inferred), also called FAM-LyP-1) [FAM-labeled LyP-1 peptide (CGNKRTRGC)]         pKd          4.64
